- target: Ecm22 (UniProt Q05958)
- Sequence: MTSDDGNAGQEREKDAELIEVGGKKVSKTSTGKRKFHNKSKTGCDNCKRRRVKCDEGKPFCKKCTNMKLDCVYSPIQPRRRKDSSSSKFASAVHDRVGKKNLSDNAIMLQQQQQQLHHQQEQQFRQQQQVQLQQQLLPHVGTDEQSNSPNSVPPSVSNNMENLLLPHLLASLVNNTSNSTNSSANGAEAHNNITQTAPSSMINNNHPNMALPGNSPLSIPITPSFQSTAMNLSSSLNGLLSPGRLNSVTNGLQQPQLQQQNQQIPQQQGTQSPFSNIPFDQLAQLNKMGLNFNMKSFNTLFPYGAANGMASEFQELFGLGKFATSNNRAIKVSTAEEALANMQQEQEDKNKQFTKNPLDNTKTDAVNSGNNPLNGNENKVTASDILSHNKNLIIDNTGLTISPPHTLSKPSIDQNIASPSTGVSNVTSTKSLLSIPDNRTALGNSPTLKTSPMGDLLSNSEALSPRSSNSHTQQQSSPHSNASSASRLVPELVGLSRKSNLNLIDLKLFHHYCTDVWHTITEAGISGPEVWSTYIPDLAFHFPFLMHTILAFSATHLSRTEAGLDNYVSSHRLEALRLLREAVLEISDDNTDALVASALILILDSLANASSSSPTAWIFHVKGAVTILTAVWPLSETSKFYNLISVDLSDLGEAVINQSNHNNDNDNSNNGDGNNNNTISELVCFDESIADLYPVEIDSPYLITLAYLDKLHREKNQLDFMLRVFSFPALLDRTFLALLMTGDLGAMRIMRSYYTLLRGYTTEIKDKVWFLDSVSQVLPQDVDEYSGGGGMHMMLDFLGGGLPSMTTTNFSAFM
- assay: PBM E-score (8-mer binding enrichment) (E-score (-0.5 to 0.5)); higher = stronger / more preferred TF binding
- experimental.parameters: protein concentration: 200 nM; construct: GST-full length
Over roughly 33,000 sequences, “E-score (-0.5 to 0.5)” has its median near -0.041; the highest 2% begin near 0.37. This is one part of a sample in which the highest values are shown more often than they occur.
Answer each item with its documented PBM E-score.

Just so you know, measured PBM E-score for `GGCGTAAA` came out at 0.159

Looking up `AACGTACC` , I see its PBM E-score listed as 0.297

Field PBM E-score (entry `CTTTATAC` ) reads 0.23

Entry `ATTTATAC` ; PBM E-score = 0.401

Kindly note the recorded PBM E-score for `ATTATACC` , which is 0.104

Given item `ACTATCCT` , the value recorded as its PBM E-score is -0.133

Value of PBM E-score reported for the sequence `GTCGTAAA` is 0.473

Summary for this sequence, `ACAACTGT` : PBM E-score is -0.148

Lab book: PBM E-score of `CAGGACGA` noted as -0.283

PBM E-score for `AATACCGT` is 0.197

Reported PBM E-score for `GGCGTACA` was 0.16

Sample `ATCGTAAG` ; PBM E-score observed: 0.308

For this sequence ( `CCTATACA` ), measured PBM E-score is -0.00901

Looking up `TCCTTAAA` , I see its PBM E-score listed as -0.1

Please fill in: PBM E-score reported for `CCTATACC` = -0.0658

get_value(item= `AGCAATAG` , readout=PBM E-score) returns -0.0955

Noted for `TGCGTAAA` : its PBM E-score reads 0.228

PBM E-score measured on `ACTATACG` = 0.463

Lookup result for `ATTATACG` ; measured PBM E-score: 0.476

Form: sequence = `ACTATACA` ; PBM E-score = 0.108

The reported value for `AGGCTTTA` in terms of PBM E-score is -0.133

Form field PBM E-score, entry `CCTATACG` : 0.465

Every entry's value here was drawn from the supplement of paper PMC3334620.
